assay: Inhibition of bovine testis hyaluronidase using hyaluronic acid as substrate preincubated with CaCl2 for 20 mins followed by incubation with of compound for 20 mins and substrate for 10 mins by colorimetric Morgan-Elson method in presence of 0.05% triton X-100; design: species or system Bos taurus
quantityKind: pIC50
pIC50 field: float, defined as -log10 of concentration (mol/L).

Lookup: Returns the measured pIC50 for the input compound. Input: O=C(O)c1cc(=O)c2c(OCC(O)COc3cccc4oc(C(=O)O)cc(=O)c34)cccc2o1 [CROMOLYN SODIUM]
Found: 2.77

Lookup: Returns the measured pIC50 for the input compound. Input: CC1(C)[C@@H](O[C@H]2O[C@H](C(=O)O)[C@@H](O)[C@H](O)[C@H]2O[C@@H]2O[C@H](C(=O)O)[C@@H](O)[C@H](O)[C@H]2O)CC[C@]2(C)[C@H]3C(=O)C=C4[C@@H]5C[C@@](C)(C(=O)O)CC[C@]5(C)CC[C@@]4(C)[C@]3(C)CC[C@@H]12 [GLYCYRRHIZIN]
Found: 4.40

Lookup: Returns the measured pIC50 for the input compound. Input: O=C(O)[C@H]1O[C@@H](Oc2cc3oc(-c4ccccc4)cc(=O)c3c(O)c2O)[C@H](O)[C@@H](O)[C@@H]1O [BAICALIN]
Found: 3.00

Lookup: Returns the measured pIC50 for the input compound. Input: CCCCCCCCCCCCCCCC(=O)OC[C@H](O)C1OC(=O)C(O)=C1O (some centres undefined)
Found: 3.32
